These entries and their values trace back to patent US20250340577A1.

Method description: Single dose IV PK in plasma and thigh homogenate, thigh infection model
Format: in vivo, mice
Measurement conditions: female, ICR, mouse; plasma; 50 mg/kg IV single dose
Observed property: half-life (min)
Give just the numeric value; min need not be written.

half-life for Nc1nnc(SCC(=O)NC(Cn2cc(C(=O)O)nn2)B(O)O)s1 (stereo not shown) is 25.8

----------
Method description: Single dose IV PK in plasma and thigh homogenate, thigh infection model
Assay type: in vivo, mice
Measurement conditions: female, ICR, mouse; thigh homogenate; 50 mg/kg IV single dose
Observed property: AUC(0-t) (ng·h/mL)
Give just the numeric value; ng·h/mL need not be written.

AUC(0-t) for Nc1nnc(SCC(=O)NC(Cn2cc(C(=O)O)nn2)B(O)O)s1 (stereo not shown) is 6300

----------
Method description: Single dose IV PK in plasma and thigh homogenate, thigh infection model
Type: in vivo, mice
Measurement conditions: female, ICR, mouse; plasma; 25 mg/kg IV single dose
Observed property: clearance (mL/min/kg)
Give just the numeric value; mL/min/kg need not be written.

clearance for Nc1nnc(SCC(=O)NC(Cn2cc(C(=O)O)nn2)B(O)O)s1 (stereo not shown) [MB076] is 23.4

----------
Method description: Single dose IV PK in plasma and thigh homogenate, thigh infection model
Format: in vivo, mice
Measurement conditions: female, ICR, mouse; plasma; 25 mg/kg IV single dose
Observed property: half-life
Just so you know, I need the unit written after the number.

half-life for Nc1nnc(SCC(=O)NC(Cn2cc(C(=O)O)nn2)B(O)O)s1 (stereo not shown) is 36.6 min

----------
Method description: Single dose IV PK in plasma and thigh homogenate, thigh infection model
Format: in vivo, mice
Measurement conditions: female, ICR, mouse; plasma; 100 mg/kg IV single dose
Observed property: half-life (min)
Give just the numeric value; min need not be written.

half-life for Nc1nnc(SCC(=O)NC(Cn2cc(C(=O)O)nn2)B(O)O)s1 (stereo not shown) [MB076] is 25.8

----------
Method description: Single dose IV PK in plasma and thigh homogenate, thigh infection model
Type: in vivo, mice
Measurement conditions: female, ICR, mouse; plasma; 12.5 mg/kg IV single dose
Observed property: clearance
Just so you know, I need the unit written after the number.

clearance for Nc1nnc(SCC(=O)NC(Cn2cc(C(=O)O)nn2)B(O)O)s1 (stereo not shown) is 29.1 mL/min/kg

----------
Method description: Single dose IV PK in plasma and thigh homogenate, thigh infection model
Type: in vivo, mice
Measurement conditions: female, ICR, mouse; thigh homogenate; 12.5 mg/kg IV single dose
Observed property: C0 (ng/mL)
Give just the numeric value; ng/mL need not be written.

C0 for Nc1nnc(SCC(=O)NC(Cn2cc(C(=O)O)nn2)B(O)O)s1 (stereo not shown) [MB076] is 6300

----------
Method description: Single dose IV PK in plasma and thigh homogenate, thigh infection model
Type: in vivo, mice
Measurement conditions: female, ICR, mouse; thigh homogenate; 50 mg/kg IV single dose; read-out: Vss
Observed property: Vd (L/kg)
Give just the numeric value; L/kg need not be written.

Vd for Nc1nnc(SCC(=O)NC(Cn2cc(C(=O)O)nn2)B(O)O)s1 (stereo not shown) [MB076] is 1.76

----------
Method description: Single dose IV PK in plasma and thigh homogenate, thigh infection model
Assay type: in vivo, mice
Measurement conditions: female, ICR, mouse; plasma; 100 mg/kg IV single dose; read-out: Vss
Observed property: Vd (L/kg)
Give just the numeric value; L/kg need not be written.

Vd for Nc1nnc(SCC(=O)NC(Cn2cc(C(=O)O)nn2)B(O)O)s1 (stereo not shown) is 0.21

----------
Method description: Single dose IV PK in plasma and thigh homogenate, thigh infection model
Format: in vivo, mice
Measurement conditions: female, ICR, mouse; plasma; 50 mg/kg IV single dose
Observed property: AUC(0-t)
Just so you know, I need the unit written after the number.

AUC(0-t) for Nc1nnc(SCC(=O)NC(Cn2cc(C(=O)O)nn2)B(O)O)s1 (stereo not shown) [MB076] is 39000 ng·h/mL

----------
Method description: Single dose IV PK in plasma and thigh homogenate, thigh infection model
Type: in vivo, mice
Measurement conditions: female, ICR, mouse; plasma; 100 mg/kg IV single dose
Observed property: AUC(0-inf) (µg·h/mL)
Give just the numeric value; µg·h/mL need not be written.

AUC(0-inf) for Nc1nnc(SCC(=O)NC(Cn2cc(C(=O)O)nn2)B(O)O)s1 (stereo not shown) is 104

----------
Method description: Single dose IV PK in plasma and thigh homogenate, thigh infection model
Type: in vivo, mice
Measurement conditions: female, ICR, mouse; plasma; 12.5 mg/kg IV single dose
Observed property: half-life (min)
Give just the numeric value; min need not be written.

half-life for Nc1nnc(SCC(=O)NC(Cn2cc(C(=O)O)nn2)B(O)O)s1 (stereo not shown) is 33.6

----------
Method description: Single dose IV PK in plasma and thigh homogenate, thigh infection model
Assay type: in vivo, mice
Measurement conditions: female, ICR, mouse; plasma; 50 mg/kg IV single dose
Observed property: C0 (µg/mL)
Give just the numeric value; µg/mL need not be written.

C0 for Nc1nnc(SCC(=O)NC(Cn2cc(C(=O)O)nn2)B(O)O)s1 (stereo not shown) is 207

----------
Method description: Single dose IV PK in plasma and thigh homogenate, thigh infection model
Format: in vivo, mice
Measurement conditions: female, ICR, mouse; plasma; 50 mg/kg IV single dose
Observed property: AUC(0-inf)

AUC(0-inf) for Nc1nnc(SCC(=O)NC(Cn2cc(C(=O)O)nn2)B(O)O)s1 (stereo not shown) is 39100 ng·h/mL

----------
System: K. pneumoniae 255
Method description: MIC with cefepime, agar microdilution, CLSI
Assay type: cell-based
Measurement conditions: compound fixed at 4 ug/ml; TEM-1, SHV-2
Observed property: MIC of cefepime in combination with compound (µg/mL)
Give just the numeric value; µg/mL need not be written.

Reference set (5 entries):
MIC of cefepime in combination with compound for O=C(CS)N[C@@H](Cn1cc(C(=O)O)nn1)B(O)O is 4

MIC of cefepime in combination with compound for Nc1nnc(SCC(=O)NC(Cn2cc(C(=O)O)nn2)B(O)O)s1 (stereo not drawn) is 2

MIC of cefepime in combination with compound for O=C(CSC1=NCCS1)NC(Cn1cc(C(=O)O)nn1)B(O)O (stereo not drawn) is 2

MIC of cefepime in combination with compound for O=C(CNn1cnnc1S)N[C@@H](Cn1cc(C(=O)O)nn1)B(O)O is 2

MIC of cefepime in combination with compound for Cc1nnc(SCC(=O)N[C@@H](Cn2cc(C(=O)O)nn2)B(O)O)[nH]1 is 2

Now for a further molecule.
MIC of cefepime in combination with compound for O=C(CSc1ccccn1)N[C@@H](Cn1cc(C(=O)O)nn1)B(O)O is 2

----------
Method description: Single dose IV PK in plasma and thigh homogenate, thigh infection model
Assay type: in vivo, mice
Measurement conditions: female, ICR, mouse; thigh homogenate; 100 mg/kg IV single dose; read-out: Vss
Observed property: Vd
Just so you know, I need the unit written after the number.

Vd for Nc1nnc(SCC(=O)NC(Cn2cc(C(=O)O)nn2)B(O)O)s1 (stereo not shown) is 1.07 L/kg

----------
Method description: Single dose IV PK in plasma and thigh homogenate, thigh infection model
Format: in vivo, mice
Measurement conditions: female, ICR, mouse; thigh homogenate; 50 mg/kg IV single dose
Observed property: half-life (min)
Give just the numeric value; min need not be written.

half-life for Nc1nnc(SCC(=O)NC(Cn2cc(C(=O)O)nn2)B(O)O)s1 (stereo not shown) is 12.6

----------
Method description: Single dose IV PK in plasma and thigh homogenate, thigh infection model
Type: in vivo, mice
Measurement conditions: female, ICR, mouse; thigh homogenate; 50 mg/kg IV single dose
Observed property: AUC(0-inf) (µg·h/mL)
Give just the numeric value; µg·h/mL need not be written.

AUC(0-inf) for Nc1nnc(SCC(=O)NC(Cn2cc(C(=O)O)nn2)B(O)O)s1 (stereo not shown) [MB076] is 6.3

----------
Method description: Single dose IV PK in plasma and thigh homogenate, thigh infection model
Type: in vivo, mice
Measurement conditions: female, ICR, mouse; thigh homogenate; 100 mg/kg IV single dose
Observed property: AUC(0-t) (ng·h/mL)
Give just the numeric value; ng·h/mL need not be written.

AUC(0-t) for Nc1nnc(SCC(=O)NC(Cn2cc(C(=O)O)nn2)B(O)O)s1 (stereo not shown) is 17200

----------
Method description: Single dose IV PK in plasma and thigh homogenate, thigh infection model
Type: in vivo, mice
Measurement conditions: female, ICR, mouse; plasma; 100 mg/kg IV single dose
Observed property: C0 (µg/mL)
Give just the numeric value; µg/mL need not be written.

C0 for Nc1nnc(SCC(=O)NC(Cn2cc(C(=O)O)nn2)B(O)O)s1 (stereo not shown) is 638

----------
Method description: Single dose IV PK in plasma and thigh homogenate, thigh infection model
Type: in vivo, mice
Measurement conditions: female, ICR, mouse; thigh homogenate; 100 mg/kg IV single dose
Observed property: AUC(0-inf) (ng·h/mL)
Give just the numeric value; ng·h/mL need not be written.

AUC(0-inf) for Nc1nnc(SCC(=O)NC(Cn2cc(C(=O)O)nn2)B(O)O)s1 (stereo not shown) is 17300
